Target: ROCK (Homo sapiens, UniProt Q13464)
Sequence (Q13464 whole entry): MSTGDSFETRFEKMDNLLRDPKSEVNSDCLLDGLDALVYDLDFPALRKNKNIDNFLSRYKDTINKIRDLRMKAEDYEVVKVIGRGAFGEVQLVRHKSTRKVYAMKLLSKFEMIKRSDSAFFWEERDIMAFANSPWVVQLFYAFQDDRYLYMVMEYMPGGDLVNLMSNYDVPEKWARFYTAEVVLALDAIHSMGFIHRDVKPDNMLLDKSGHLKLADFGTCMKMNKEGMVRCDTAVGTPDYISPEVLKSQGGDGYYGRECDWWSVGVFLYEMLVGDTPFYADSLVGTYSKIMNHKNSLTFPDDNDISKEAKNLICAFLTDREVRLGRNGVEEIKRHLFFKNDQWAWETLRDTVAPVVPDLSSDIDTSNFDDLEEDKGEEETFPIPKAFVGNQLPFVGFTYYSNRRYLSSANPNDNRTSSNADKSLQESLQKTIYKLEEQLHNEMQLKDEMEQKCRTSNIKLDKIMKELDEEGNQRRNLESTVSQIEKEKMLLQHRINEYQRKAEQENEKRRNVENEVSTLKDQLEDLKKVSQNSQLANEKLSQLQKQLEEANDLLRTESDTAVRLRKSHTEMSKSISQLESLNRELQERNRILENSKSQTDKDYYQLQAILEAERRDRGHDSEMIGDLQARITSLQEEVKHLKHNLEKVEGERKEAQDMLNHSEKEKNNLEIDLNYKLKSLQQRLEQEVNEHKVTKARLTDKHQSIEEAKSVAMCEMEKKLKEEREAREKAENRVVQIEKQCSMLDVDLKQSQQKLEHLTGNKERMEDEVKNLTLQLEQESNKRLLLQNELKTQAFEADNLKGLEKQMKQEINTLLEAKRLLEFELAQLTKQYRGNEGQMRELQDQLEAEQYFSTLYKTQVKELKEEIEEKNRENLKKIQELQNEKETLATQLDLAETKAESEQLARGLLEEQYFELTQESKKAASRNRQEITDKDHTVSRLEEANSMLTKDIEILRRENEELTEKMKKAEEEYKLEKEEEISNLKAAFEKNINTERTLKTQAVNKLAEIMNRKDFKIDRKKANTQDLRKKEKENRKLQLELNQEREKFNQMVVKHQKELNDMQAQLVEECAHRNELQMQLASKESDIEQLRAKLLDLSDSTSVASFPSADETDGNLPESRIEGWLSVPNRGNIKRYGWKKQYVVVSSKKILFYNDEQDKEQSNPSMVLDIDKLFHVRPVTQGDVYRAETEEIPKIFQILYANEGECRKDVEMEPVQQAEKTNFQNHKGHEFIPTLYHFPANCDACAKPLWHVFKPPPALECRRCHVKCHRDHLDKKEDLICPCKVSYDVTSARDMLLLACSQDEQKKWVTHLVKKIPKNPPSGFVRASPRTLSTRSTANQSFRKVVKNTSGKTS
Assay: ROCK radioactive assay ("33P")
Format: biochemical
Source text: If more than one value of Ki has been determined, the average Ki is indicated. If no value is indicated, then the Ki was not determined.
pKi: −log10 of the molar value.
measure name: pKi

1) CS(=O)(=O)Nc1cccc(CC(=O)Nc2nc(-c3c[nH]c4c3ccc[n+]4[O-])cs2)c1 [II-216] ... > 6.30

====

Here, each record is paired with measured Ki data.
target: PKA (Homo sapiens)
measure name: Ki

1. CS(=O)(=O)Nc1ccc(CC(=O)Nc2nc(-c3c[nH]c4ncccc34)cs2)c(Cl)c1 ... < 500 nM
2. NCC(C(=O)Nc1nc(-c2c[nH]c3ncccc23)cs1)c1ccc(F)cc1Cl (centres unmarked) ... < 500 nM
3. COc1cccc(CNC(=O)c2ccc(-c3c[nH]c4ncccc34)s2)c1 ... < 500 nM
4. CC(=O)NCCC(=O)Nc1nc(-c2c[nH]c3ncccc23)cs1 ... 500 to 5000 nM
5. COc1cccc(C(O)C(=O)Nc2nc(-c3c[nH]c4ncccc34)cs2)c1 (centres unmarked) ... < 500 nM

Reference source: patent US7514448B2
